Biological target: Beta-2 adrenergic receptor (Homo sapiens)
Test: Potency index, ratio of 4-((2S)-3-(((S)-3-(3-bromophenyl)-1-(methylamino)-1-oxopropan-2-yl)amino)-2-(2-cyclohexyl-2-phenylacetamido)-3-oxopropyl)benzamide Imax to test compound Imax for negative allosteric modulation of beta-2 adrenergic receptor (unknown origin) transfected in HEK293 cells assessed as decrease in cAMP accumulation at 50 uM preincubated for 20 mins followed by ISO treatment for 5 mins for by Glo sensor assay
Assay type: functional, cell-based
Details: filed as negative allosteric modulator, time 25.0 min

[
  {
    "Compound structure string": "CNC(=O)[C@H](Cc1cccc(Br)c1)NC(=O)c1cc(-c2ccccc2)nn1Cc1ccc(F)cc1",
    "Ratio": 1.14
  },
  {
    "Compound structure string": "CNC(=O)[C@H](Cc1cccc(Br)c1)NC(=O)c1cc(-c2ccccc2Cl)nn1Cc1cccc(Br)c1",
    "Ratio": 1.18
  },
  {
    "Compound structure string": "CNC(=O)[C@H](Cc1cccc(Br)c1)NC(=O)c1cc(-c2cccc(Br)c2)nn1Cc1cccc(Br)c1",
    "Ratio": 1
  },
  {
    "Compound structure string": "CNC(=O)[C@H](Cc1cccc(Br)c1)NC(=O)c1cc(-c2ccccc2)nn1Cc1ccccc1F",
    "Ratio": 1.43
  },
  {
    "Compound structure string": "CNC(=O)[C@H](Cc1cccc(Br)c1)NC(=O)c1cc(-c2ccccc2)nn1Cc1ccc(C#N)cc1",
    "Ratio": 1
  },
  {
    "Compound structure string": "CNC(=O)[C@H](Cc1cccc(Br)c1)NC(=O)c1cc(-c2ccccc2)nn1Cc1cccc(F)c1",
    "Ratio": 1.33
  },
  {
    "Compound structure string": "CNC(=O)[C@H](Cc1cccc(Br)c1)NC(=O)c1cc(-c2ccccc2)nn1Cc1ccc(Cl)cc1",
    "Ratio": 1.14
  },
  {
    "Compound structure string": "CNC(=O)[C@H](Cc1cccc(Br)c1)NC(=O)c1cc(-c2ccccc2)nn1Cc1cccc(Cl)c1",
    "Ratio": 1.14
  },
  {
    "Compound structure string": "CNC(=O)[C@H](Cc1cccc(Br)c1)NC(=O)c1cc(-c2ccccc2[N+](=O)[O-])nn1Cc1cccc(Br)c1",
    "Ratio": 1.2
  },
  {
    "Compound structure string": "CNC(=O)[C@H](Cc1cccc(Br)c1)NC(=O)c1cc(-c2cccc(Cl)c2)nn1Cc1cccc(Br)c1",
    "Ratio": 1.27
  },
  {
    "Compound structure string": "CNC(=O)[C@H](Cc1cccc(Br)c1)NC(=O)c1cc(-c2ccccc2)nn1Cc1ccccc1Cl",
    "Ratio": 1.14
  },
  {
    "Compound structure string": "CNC(=O)[C@H](Cc1cccc(Br)c1)NC(=O)c1cc(-c2ccccc2)nn1Cc1cccc(I)c1",
    "Ratio": 1.25
  }
]

Source: ChEMBL document CHEMBL5576071
